Assay: soluble on expression in E. coli; label from the status in PepcDB or PDB records

{"columns": ["SEQ TEXT", "soluble on expression in E. coli"],
 "data": [
  ["MQVSVRDNNVDQALRALKKKLQREGVFREMKLKQHFEKPSEKKAREKAEAIRRARKLARKKAQREGMLLEHHHHHH", "not soluble"],
  ["MGSDKIHHHHHHMLTSRKFFPSLSSLRALEALDRLGSASAVAEELALTQSAVSRQLQTLEGQMGVELIRRDRKRLSLTPAAQDYVTEIREALNRIAQASLRLQVAPAGGTVNLAILPTFGMRWLMPRLPEFSRLHPDITINMTTRLRPFNFASEPFDAALHFGEPDWPGTDRLLLRAERVLPVCAPGLLPHGAPKSPADLLRLPLLHIQTRPRAWQDWFAQMGVTCPETLPGTLYDQFATIGQAALHGLGVALLPNYVVEQDLATGRLVAAYPDAVETLGAYYLVWPRARGNDPSLRAFRHWLAAQAEPEEGLPR", "not soluble"]
]}

---

Assay: soluble on expression in E. coli; label from the status in PepcDB or PDB records
OUTCOME MEASURE: soluble on expression in E. coli

{"columns": ["SEQ TEXT", "OUTCOME MEASURE", "RECORDED VALUE"],
 "data": [
  ["MEQPLMPPAPPSYVASQSQAITTQPGASIPMPPGTIVIEALPPVEGIPGGLEYLAYLDTIMVHQFLEPIEIRTGWETKNKYAIKKICYQKRQCCGAERAFVMHIVDNFNKEVLTVKRERHCCGCCCWLGSTNKSTIESPSMGLLGTVLLGHGCTNSHCNVLDKDEELLFLVDGQGCCTYCCCDDKAFTIKTPDTYKRIGAITKKWGGIIREAYTDADTFAVTFPADLDVKAKALLLATTILQSLRVVVEVEKLEIEIFICCALFMK", "soluble on expression in E. coli", "not soluble"],
  ["MGSDKIHHHHHHMVEVLERLGCETVLPEKQICCGQPTYNSGYSKDSMKTFKNEIDALLSIDADYIVGPSGSCVFMIKEYKDIFKDDPEYGPKAAEIDSKIYEFTQFIYRVLKVVDCGAELDAKVTVHRSCHMTRLIGERTAPFVLLDHVKDIERVPLKNVQLCCGFGGTFSAKRPELSVEMVDEKVKNIVDTDAEILIGTEESCLMNIVGRMNRLGYKIKAMHIAEVLNHNVDINRIKYIKDTDHVVVPANGEGVF", "soluble on expression in E. coli", "not soluble"]
]}

---

Assay: soluble on expression in E. coli; label from the status in PepcDB or PDB records
OUTCOME MEASURE: soluble on expression in E. coli

Below are worked cases with known answers.
{"columns": ["SEQ TEXT", "soluble on expression in E. coli"],
 "data": [
  ["MWNETVEHENAGNGWAAGESSFMTDRKPDSKATTLGERLPVPVTISNLIEHFSAQDDKYVVGTFRFATVLTVGIVKDISQDGTTYTYDLCDPNNTEMEYRTLKYDNEGSTFDHSSIVEGTRVRAIGKLKGFDGNNTIMLFNITPVEDDKDFTIFELEAEAARLFFQKNVSEKLKSVDSDGFQGMLAPPKSRMSQTSHQSSQGSDTKERLYAQPQKVMTGANQGDVLRERITAVLMAVPEGSRDEGRHVSWIAEQIQETNISIVRKCVGEMVENGLVYTTVDEETVSAI", "not soluble"],
  ["METPQDSRQSIQKPPSPAAEEDKEEQPGGNAVVSGAPEERIDKKELVLNWLAQGEFDQGEGAQGEVAGGEQAQEEPAPLSPAQEATGGEEEGENKEGEMEGRHAGDGASSSEDDSILEEGGENIDQQPPQQEAASPDSIRNPHVLNRLAQLRYRRTRFTHFQLHDLERLFQETRYPSLRARRDLARWMGVDECDVQNWFRMRRALFQRNRRVLMFCELPPLPQSDSP", "soluble"],
  ["TVSVLLPFVATEFYRRLVEGIEGVLLEQRYDLALFPILSLARLKRYLENTTLAYLTDGLILASYDLTERFEEGRLPTERPVVLVDAQNPRYDSVYLDNRLGGRLAGAYLARFPGPIFAIAVEEEPDRAFRRTVFAERMAGFQEALKEAGRPFSPDRLYITRHSQEGGRLALRHFLEKASPPLNVFAGADQVALGVLEEAVRLGLTPGRDVRVLGFDGHPFAEEAGLSTIAQPVEAMGARAAQLLLERMRGYQGPPREVRFEPVLVERASTGTPPAA", "soluble"],
  ["MKVAIASDHGGVHIRNEIKELMDELQIEYIDMGCDCGSGSVDYPDYAFPVAEKVVSGEVDRGILICGTGIGMSISANKVKGIRCALAHDTFSAKATREHNDTNILAMGERVIGPGLAREIAKIWLTTEFTGGRHQTRIGKISDYEEKNL", "soluble"],
  ["MGSDKIHHHHHHMNLKDKTLLITGIDEFVGLRTAELAIAQGMKVRGLKSSTEQNKQLQNLGVEIIIGSITDSTIAQKACQGVDIVLHTDQLAEEAGAIKNFRDVNVGGTVNMAKAAKQAGVKTFVHLSSVMVYGFNYPNGVTESGPLSGENNPYCETKIEAETAVLELNNPPDFGIIVIRAGDVYGPGSIPWIVRPVLMMRQKLFACANDGKGVINHVYIDNLIDGIFLAIEKETYGEIFNITDGQETSWKEYFMRLAAMEGLSAPLSLPKDEIKLFLKLRVQGQKLFRKKVDILPESIDFMTRPYACSIVKAQSMLNYKPTIHLEEGMQRTHEWLQKTDIQSLIK", "not soluble"],
  ["ELKDSYVDYTLLYDMIANRIGIEEAVVENGALRLMKNQVWAYDFLPHMLIAGGTGGGKTYFLLTIIEALLKSDAELFILDPKNADLADLGTIMTHVYSQKEQISACVEDFYERMMVRSRLMKEMPNYKTGENYAYLGLSPNFLVFDEYVAYMEMLTTKESAVILNKLKQIVMLGRQSGFFLILACQRPDA", "not soluble"]
]}

Kindly review the next sequence as well.
# input Please look up its soluble on expression in E. coli: MAHHHHHHMKKNLIRWGEKVTDELTKVTLTDKPLGTDFDQGIENLQIKFKELFKIWKNASNKLINDFTSKLDTTSYLSSLQNFVDNEYEFYDSASSVCDEETNS
# output not soluble

---

Assay: soluble on expression in E. coli; label from the status in PepcDB or PDB records
OUTCOME MEASURE: soluble on expression in E. coli

{"columns": ["SEQ TEXT", "soluble on expression in E. coli"],
 "data": [
  ["MRFFKHYAPSMIAKHISRLFNGKIHIHGIGEFRFKDGQLVAPTEAEREHYKMVKEINSEITRLKMAYLEHHHHHH", "not soluble"],
  ["MGHHHHHHSHRRERACPERALDLENIMRKFSGSCRCCAKQIKFYRMRHHYKSCKKYQDEYGVSSIIPNFQISQDSVGNSNRSETSTSDNTETYQENTSSSGHPTFKCPLCQESNFTRQRLLDHCNSNHLFQIVPVTCPICVSLPWGDPSQITRNFVSHLNQRHQFDYGEFVNLQLDEETQYQTAVEESFQVNI", "not soluble"],
  ["MSLENKRILITGGAGFIGSNMVEHLLPKNEVTVIDNLSITDDRYIKKFYDNPNFKFIKKDILNGIDGYHYDIVVHLAADSDVRNGSSNPALDMKVNVEGTISVLEMMRKSDIKDILFASSSTVYGEAKVIPTPENYGPLLPISSYGASKLAAEAFISAYASYYGFNALLFRFANVVGKNSTHGVIFDFINKLKNNKKELEVLGDGTQAKSYIHVEDLIGSMIYVYEHVKGVEPFNLGNDDVTSVDKIAKFVLEAMGLKDTAIVHRGGYNGRGWPGDVKYAMMDIAKLKKTGWKNKYSSDEAVKKSINEVMNQILEGHHHHHH", "soluble"],
  ["MGSDKIHHHHHHMETDRLIIMDKLRAMRMFVRVVDAGSFSRVANELNVTTSMISKEIGRLEEDLGVRLLHRSTRGQQLTSIGEGYLKRCRELLVQVDDADAYVQHMQENPRGKLRINAPMALGITDLSQLFSAYMKQYPDVELDIQLGDESLDLIEHGFDLGFRASSQMLDSNYVGKPLVSFTYKVCASASYLESHPPIREVEDLAAHNCFVYSYFKSGNFWPLAQGITVAGSLKVNSTLFMKQVIEDGLGIGFLPSFVAREGIEQGKLVEVLPEVGRPDLTLYALYPNRLFTPPKLLSCIEFLQSWFLSRNLDEGWLQ", "not soluble"],
  ["MATSLDRDKEAVLRALRPYLEGTGTRLFLFGSFARGEGRQASDLDLALLSPVPLKDLMPLLREALEEAPVVRRVDLVDLAEAEPAFRERVLREGVLWAEF", "soluble"],
  ["DVQLQQSGPELKKPGETVKLSCKASGYTFTNFGLNWMKQAPGKGLKWMGWINTYTGESTYADDFKGRFAFSLETSASTAYLQINNVKNEDTATYFCARGFYYYGSRYFYFDYWGQGTTLTVSSAKTTAPSVYPLAPVCGDTTGSSVTLGCLVKGYFPEPVTLTWNSGSLSSGVHTFPAVLQSDLYTLSSSVTVTSSTWPSQSITCNVAHPASSTKVDKKIEPRGP", "soluble"]
]}

Kindly review the next sequence as well.
# input Please look up its soluble on expression in E. coli: SLKKILILDDETSVLNALQRQLIRNNWQVISFKHPATALDYAKHVFFPIVITDYRMPQMSGVEFLLEFQKLQPYAYKIMLSGQAGEYGMTEAINQAKIDYFIHKPWDNCQLLNQIDKGLNHYRQTIKHLLKTNSKRMSREDYLIWYEKLVEQACPSITKVKKNPLGWIEAEEG
# output not soluble
